System: U-937
Assay: Cytoprotective activity against 1.5 uM etoposide-induced cell death in human U937 cells pretreated for 5 hrs measured after 24 hrs by cell flow cytometry using propidium iodide staining relative to control
Assay type: functional, cell-based
Active and inactive are the calls of the source. No cut-off for these calls is given here.
Outcome codes: label 1 (active), label 0 (inactive)

>>> print(df.to_string())
                                   compound    label
0  C=C1C=CC(=O)OC1/C=C/C=C/C (stereo unspecified)  label 0
1  C=C1C=C(CCC(=O)OC)C(=O)OC1CCCCC (stereo unspecified)  label 0
2  C=C1C=C(CCC(=O)O)C(=O)OC1/C=C/C=CC (stereo unspecified)  label 1
3  C=C1C=CC(=O)OC1CCCCC (stereo unspecified)  label 0
4  C=C1C=CC(=O)OC1/C=C/CCC (stereo unspecified)  label 0
5  C=C1C=C(CCC(=O)OC)C(=O)OC1/C=C/C=C/C (stereo unspecified)  label 0
